biological target: menin-MLL interaction (Homo sapiens (Human), UniProt O00255); assay: HTRF (TR-FRET) assay, His-tagged menin and biotinylated MLL peptide; assay type: binding; conditions: Table 3
Sequence (O00255 whole entry): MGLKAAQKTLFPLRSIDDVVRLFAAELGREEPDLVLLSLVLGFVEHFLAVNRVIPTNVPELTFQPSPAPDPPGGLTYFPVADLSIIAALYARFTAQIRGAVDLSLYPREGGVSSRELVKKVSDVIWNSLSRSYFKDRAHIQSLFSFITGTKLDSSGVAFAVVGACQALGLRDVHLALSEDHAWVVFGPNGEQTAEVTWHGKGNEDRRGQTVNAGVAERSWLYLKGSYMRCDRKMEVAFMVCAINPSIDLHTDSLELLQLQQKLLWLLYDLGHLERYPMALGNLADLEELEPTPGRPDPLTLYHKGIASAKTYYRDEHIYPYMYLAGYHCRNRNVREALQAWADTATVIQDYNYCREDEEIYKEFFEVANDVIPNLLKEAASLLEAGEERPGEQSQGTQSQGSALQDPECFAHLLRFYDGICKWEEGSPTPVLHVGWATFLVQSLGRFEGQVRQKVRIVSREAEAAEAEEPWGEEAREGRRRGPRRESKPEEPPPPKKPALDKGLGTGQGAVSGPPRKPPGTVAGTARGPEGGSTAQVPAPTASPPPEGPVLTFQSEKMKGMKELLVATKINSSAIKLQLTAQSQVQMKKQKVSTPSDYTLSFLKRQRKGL
endpoint.label: IC50 (µM)

[1] CC(=O)N1c2ccccc2NC2=C(C(=O)CC(c3ccc(C(C)(C)C)cc3)C2)C1c1ccncc1 (centres unmarked)
[2] CC(=O)N1c2ccccc2NC2=C(C(=O)CC(c3ccc(C(C)(C)C)cc3)C2)C1c1cccnc1 (centres unmarked)
So which one has the bigger IC50 here, 1 or 2 ? Kindly give the label for the entry you pick. 1
(1: 28 µM, 2: 7 µM)

---

biological target: menin-MLL interaction (Homo sapiens (Human)); assay: Fluorescence polarization (FP) competition assay with fluorescein-labeled MLL peptide; type: binding; conditions: Table 1; NA = no activity, NS = no saturation on titration curve; read-out: IC50 in FP assay with FLSN-MLL
pIC50: −log10 of the molar value.
endpoint.label: pIC50

Look over these answered cases.
{"molecule": "CCc1cc2c(N3CCN(c4ncccn4)CC3)ncnc2s1", "assay.system": "menin-MLL interaction (Homo sapiens (Human))", "measurement": 3.60}
{"molecule": "Cc1csc(N2CCN(c3nc(C)nc4sc5c(c34)CCCC5)CC2)n1", "assay.system": "menin-MLL interaction (Homo sapiens (Human))", "measurement": 4.31}
{"molecule": "CN1CCCN(c2ncnc3sccc23)CC1", "assay.system": "menin-MLL interaction (Homo sapiens (Human))", "measurement": 3.46}
{"molecule": "Cc1c(-c2ccccc2)sc2ncnc(N3CCN(c4nccs4)CC3)c12", "assay.system": "menin-MLL interaction (Homo sapiens (Human))", "measurement": 4.15}
{"molecule": "CCc1cc2c(N3CCN(Cc4ccccc4)CC3)ncnc2s1", "assay.system": "menin-MLL interaction (Homo sapiens (Human))", "measurement": 4.38}
{"molecule": "c1ccc(-c2cc3c(N4CCN(c5nccs5)CC4)ncnc3s2)cc1", "assay.system": "menin-MLL interaction (Homo sapiens (Human))", "measurement": 4.30}

[I] Cc1csc(N2CCN(c3nc(CN4CCOCC4)nc4sc5c(c34)CCC(C)C5)CC2)n1 (stereo not drawn)
[II] CCc1cc2c(N3CCN(c4ccccn4)CC3)ncnc2s1
[III] c1csc(N2CCN(c3ncnc4sccc34)CC2)n1
[IV] CN1CCN(c2ncnc3oc(-c4ccccc4)c(-c4ccccc4)c23)CC1
[V] Fc1ccc(-c2csc3ncnc(N4CCN(c5nccs5)CC4)c23)cc1
Please order the records by their reported pIC50, lowest number first. Output the labels ranked as instructed. IV, I, V, II, III
(IV: 3.30, I: 3.60, V: 3.90, II: 4.22, III: 4.53)

---

target: menin-MLL interaction (Homo sapiens (Human), UniProt O00255); experiment: Fluorescence polarization (FP) competition assay with fluorescein-labeled MLL peptide; type: binding; conditions: Table 4; NA = no activity, NS not defined in this table; read-out: IC50 in FP assay with FLSN-MLL;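 note: Read-out is fluorescence anisotropy of fluorescein-labeled MLL peptide bound to menin, inhibitors displace the peptide and lower anisotropy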
endpoint.label: IC50 (µM)

{"mol.smiles": "O=C(Cc1nc(-c2ccc(Cl)cc2)cs1)NCc1ccccc1", "IC50 / µM": 1060}

[P] OCc1ccc(-c2ccncc2)cc1
[Q] NC(=O)Cc1nc(-c2ccccc2)cs1
For the two items P and Q , which reports the higher IC50 value? Could you answer with the label of the item you picked? Q
(Q: 2000 µM, P: 510 µM)

[A] COc1ccc(-c2csc(CC(N)=O)n2)cc1
[B] O=C(Cc1nc(-c2ccc(F)cc2)cs1)N1CCOCC1
# query: argmin of IC50 over A and B // output: label of the selected item A
